# Test system: colon (HCT116) tumor cell line
# RUN DESCRIPTION: Methylene Blue Growth Inhibition Assay, HCT116
# Type: cell-based
# TEST SETTINGS: Homo sapiens, HCT-116, 72 h; HCT116, 3 days; read-out: MeB Cell Line IC50

MOLECULE	IC50
COc1cc(Nc2ncc3c(C)nc(-c4cccc(C#N)c4)n3n2)cc(OC)c1OC [Example 8]	10 to 30 µM
Cc1nc(-c2cccc(C(F)(F)F)c2)n2nc(Nc3cccc(CNC(=O)OC(C)(C)C)c3)ncc12 [Example 48]	10 to 30 µM
COc1cc(Nc2ncc3c(C)nc(-c4ccccc4)n3n2)cc(OC)c1OC [Example 1]	1 to 10 µM
COc1ccc(NC(C)=O)cc1Nc1ncc2c(C)nc(-c3cccc(C(F)(F)F)c3)n2n1 [Example 43]	1 to 10 µM
COc1cc(Nc2ncc3c(C)nc(-c4cccc(C(F)(F)F)c4)n3n2)cc(OC)c1OC [Example 5]	1 to 10 µM
Cc1nc(-c2cccc(C(F)(F)F)c2)n2nc(Nc3cccc(S(N)(=O)=O)c3)ncc12 [Example 41]	1 to 10 µM
CC(=O)Nc1cccc(Nc2ncc3c(C)nc(-c4cccc(C(F)(F)F)c4)n3n2)c1 [Example 47]	1 to 10 µM
CC(=O)Nc1ccc(Nc2ncc3c(C)nc(-c4cccc(C(F)(F)F)c4)n3n2)cc1 [Example 46]	1 to 10 µM
Cc1nc(-c2ccccc2)n2nc(Nc3cccc(CCS(=O)(=O)O)c3)ncc12 [Example 57]	10 to 30 µM
COc1cc(Nc2ncc3c(C)nc(-c4cccc(Br)c4)n3n2)cc(OC)c1OC [Example 9]	1 to 10 µM
Cc1nc(-c2cccc(C(F)(F)F)c2)n2nc(Nc3cccc(CCO)c3)ncc12 [Example 44]	1 to 10 µM
COc1cc(Nc2ncc3c(C)nc(-c4cccc(C(N)=O)c4)n3n2)cc(OC)c1OC [Example 16]	10 to 30 µM
Cc1nc(-c2ccccc2)n2nc(Nc3cccc(CCO)c3)ncc12 [Example 19]	1 to 10 µM
COc1cc(Nc2ncc3c(C)nc(-c4ccc(C(F)(F)F)cc4)n3n2)cc(OC)c1OC [Example 24]	10 to 30 µM
COc1cc(Nc2ncc3c(C)nc(-c4ccccc4O)n3n2)cc(OC)c1OC [Example 22]	10 to 30 µM

====

Recorded IC50, one value per entry.
# Test system: colon (RKO) tumor cell line
# RUN DESCRIPTION: Methylene Blue Growth Inhibition Assay, RKO
# Assay type: cell-based
# TEST SETTINGS: Homo sapiens, 72 h, 3 days, read-out: MeB Cell Line IC50
ASSAY READOUT: IC50

COMPOUND	TESTED SYSTEM	ASSAY READOUT	RESULT
Cc1nc(-c2ccccc2)n2nc(Nc3cccc(CCS(=O)(=O)O)c3)ncc12 [Example 57]	colon (RKO) tumor cell line	IC50	10 to 30 µM
COc1cc(Nc2ncc3c(C)nc(-c4cccc(C(N)=O)c4)n3n2)cc(OC)c1OC [Example 16]	colon (RKO) tumor cell line	IC50	10 to 30 µM
COc1cc(Nc2ncc3c(C)nc(-c4ccccc4)n3n2)cc(OC)c1OC [Example 1]	colon (RKO) tumor cell line	IC50	1 to 10 µM
Cc1nc(-c2cccc(C(F)(F)F)c2)n2nc(Nc3cccc(S(N)(=O)=O)c3)ncc12 [Example 41]	colon (RKO) tumor cell line	IC50	1 to 10 µM
COc1ccc(NC(C)=O)cc1Nc1ncc2c(C)nc(-c3cccc(C(F)(F)F)c3)n2n1 [Example 43]	colon (RKO) tumor cell line	IC50	1 to 10 µM
COc1cc(Nc2ncc3c(C)nc(-c4cccc(C(F)(F)F)c4)n3n2)cc(OC)c1OC [Example 5]	colon (RKO) tumor cell line	IC50	1 to 10 µM
COc1cc(Nc2ncc3c(C)nc(-c4cccc(Br)c4)n3n2)cc(OC)c1OC [Example 9]	colon (RKO) tumor cell line	IC50	1 to 10 µM
Cc1nc(-c2ccccc2)n2nc(Nc3cccc(CCO)c3)ncc12 [Example 19]	colon (RKO) tumor cell line	IC50	1 to 10 µM
CC(=O)Nc1cccc(Nc2ncc3c(C)nc(-c4cccc(C(F)(F)F)c4)n3n2)c1 [Example 47]	colon (RKO) tumor cell line	IC50	10 to 30 µM
COc1cc(Nc2ncc3c(C)nc(-c4cccc(C#N)c4)n3n2)cc(OC)c1OC [Example 8]	colon (RKO) tumor cell line	IC50	10 to 30 µM
Cc1nc(-c2cccc(C(F)(F)F)c2)n2nc(Nc3cccc(CNC(=O)OC(C)(C)C)c3)ncc12 [Example 48]	colon (RKO) tumor cell line	IC50	1 to 10 µM
COc1cc(Nc2ncc3c(C)nc(-c4ccccc4O)n3n2)cc(OC)c1OC [Example 22]	colon (RKO) tumor cell line	IC50	10 to 30 µM
COc1cc(Nc2ncc3c(C)nc(-c4ccc(C(F)(F)F)cc4)n3n2)cc(OC)c1OC [Example 24]	colon (RKO) tumor cell line	IC50	10 to 30 µM
Cc1nc(-c2cccc(C(F)(F)F)c2)n2nc(Nc3cccc(CCO)c3)ncc12 [Example 44]	colon (RKO) tumor cell line	IC50	1 to 10 µM
CC(=O)Nc1ccc(Nc2ncc3c(C)nc(-c4cccc(C(F)(F)F)c4)n3n2)cc1 [Example 46]	colon (RKO) tumor cell line	IC50	1 to 10 µM
